# Tested on: DU-145 prostate
# assay-comment: NCI tumour cell line growth inhibition, 48 h
attribute-measured: TGI

compound	target-desc	result
C=CCn1c(=O)c(Br)nn(CCOCP(=O)(OCC)OCC)c1=O	DU-145 prostate	> 100 µM

Q: Give the measured TGI for COc1cc2c3c(n(CCCn4cncn4)c(=O)c2cc1OC)-c1cc2c(cc1C3=O)OCO2
A: > 34.7 µM

Q: Give the measured TGI for COc1ccc2nc3c(cc2c1)C(=O)CC(c1ccccc1)C3 (stereo not drawn)
A: > 58.1 µM

----------
# Test system: 786-0 renal
# assay-comment: NCI tumour cell line growth inhibition, 48 h
attribute-measured: TGI

Reference set, count: 2
molecule	TGI
COC(=O)CCC(=O)c1ccc2c(c1)CC1(C2)Cc2ccc(C(=O)CCC(=O)OC)cc2C1	> 100 µM
O=S1(=O)c2ccccc2N2C(c3ccccc3)=NOC2(c2ccccc2)CC1c1ccc(Br)cc1 (stereo not drawn)	> 100 µM

Q: Give the measured TGI for COc1ccc(NC(=O)C(C#N)=C(SC)SC)cc1
A: > 100 µM

----------
# Test system: DMS 114 small cell lung
# assay-comment: NCI tumour cell line growth inhibition, 48 h
attribute-measured: TGI

Reference set, count: 2
compound	TGI
C#CC(C)(C)OCCCCOc1cc(O)c2c(=O)c3ccccc3n(C)c2c1	> 100 µM
CCCCCCCC(=O)OCC1OC(n2cc(F)c(=O)[nH]c2=O)C(N)C(O)C1O (stereo not drawn)	> 100 µM

Next compound, TGI to be filled in.
Q: Give the measured TGI for CCc1cccc(C(C)CC)c1NC(=O)C(=O)Cc1nc2ccccc2o1 (stereo not drawn)
A: > 50 µM

----------
# System: HT29 colon
# assay-comment: NCI tumour cell line growth inhibition, 48 h; in the data active means GI50 below about 0.43 µM; inactive means the rest
Allowed answers: true (1) for active, false (0) for inactive

COC(=O)C1=C(C(=O)ON)[C@@H]2C=C[C@@]1([C@@H](Cc1ccccc1)Nc1ccccc1)O2 false (0)
CC[C@]12C=CCN3CC[C@@]4(c5ccc(OC)cc5N(C)[C@H]4[C@@](O)(C(=O)OC)[C@@H]1OC(=O)CCC(=O)O[C@H]1CC[C@H]4[C@@H]5CC[C@H]6CC(=O)CC[C@]6(C)[C@H]5CC[C@]14C)[C@@H]32 false (0)
COc1ccc(CNCCCN2C(=O)c3ccc4c5c(ccc(c35)C2=O)C(=O)N(CCCNCc2ccc(OC)c(OC)c2OC)C4=O)c(OC)c1OC true (1)
O=C1c2ccccc2C(=O)c2c1oc1c2c(=O)[nH]c2ccc(Cl)cc21 false (0)
CC1(C)N=c2cc3c(cc2N1c1ccc(Cl)cc1)=Nc1ccccc1N3c1ccc(Cl)cc1 false (0)

Q: Outcome logged for [Co].[O-]c1cccnc1C=Nc1ccccc1.[OH3+] in this assay:
A: false (0)

Q: Outcome logged for Cc1nc2ccccc2c(/C=C/c2ccccc2)c1C(=O)/C=C/c1ccc(C(F)(F)F)cc1 in this assay:
A: false (0)

Q: Outcome logged for Cc1ccc(-c2nc(/C=N/Nc3cc(C)nc4ccc(Br)cc34)c(C)o2)cc1 in this assay:
A: false (0)

Q: Outcome logged for O=c1oc2ccc(Cl)cc2c(=O)n1-c1ccc(F)cc1F in this assay:
A: false (0)

----------
Below is a list of entries, each paired with its recorded TGI value.
# Test system: BT-549 breast
# assay-comment: NCI tumour cell line growth inhibition, 48 h

compound	TGI
COC(=O)[C@@H]1C[C@]2(Br)c3ccccc3N(S(=O)(=O)c3ccccc3)[C@@H]2N1C(=O)OC	> 100 µM
Nc1ncnc2c1ncn2[C@@H]1O[C@H](COP(=O)(O)OP(=O)(O)OC[C@H]2O[C@@H](OCCCO)[C@H](O)[C@@H]2O)[C@@H](O)[C@H]1O	> 100 µM
CC1=C[C@H]([C@H]2C=C(C)C(C(N)=O)=CN2Cc2c(Cl)cccc2Cl)N(Cc2c(Cl)cccc2Cl)C=C1C(N)=O	> 75 µM
O=C1CCCCCCCCCCC1CN1CCOCC1 (configuration not stated)	> 100 µM
CC(=O)OC12CC[N+]3(C)CCCCC3C1=Nc1ccccc12 (configuration not stated)	> 100 µM
Cc1nn(C(=O)Cc2ccccc2)c2c1C(c1ccc([N+](=O)[O-])cc1)SC(N)=N2 (configuration not stated)	> 100 µM
CC(C)=Cc1cccc2[nH]c(O)c(N=Nc3ccc(S(N)(=O)=O)cc3)c12	> 25 µM
[N-]=[N+]=Nc1c(-c2ccccc2)c(=O)n(-c2ccccc2)c2ccccc12	> 100 µM

Q: Give the measured TGI for Cn1c2ccccc2c2c3c(c4c5ccccc5n(C5OC(CO)C(O)C(O)C5O)c4c21)C(=O)OC3=O (configuration not stated)
A: > 100 µM

Q: Give the measured TGI for Cc1cc(C#N)c(Nc2ccc(F)cc2[N+](=O)[O-])s1
A: > 100 µM

Q: Give the measured TGI for CCOP(=O)(Nc1ccc(-c2ccc(N)cc2)cc1)OCC
A: > 100 µM

Q: Give the measured TGI for CCCCc1nc(C)oc1C(C)C
A: > 100 µM

----------
# Test system: SK-MEL-28 melanoma
# assay-comment: NCI tumour cell line growth inhibition, 48 h
attribute-measured: TGI

compound	target-desc	result
O=C1/C(=C/c2ccc(F)cc2)CN(C(=O)C(Cl)Cl)C/C1=C\c1ccc(F)cc1	SK-MEL-28 melanoma	0.666 µM
C=CCOc1ccc(N)c([N+](=O)[O-])c1	SK-MEL-28 melanoma	> 100 µM
CCN1C(=O)N(CC)C2C1NN=c1s/c(=C\c3ccc(C(F)(F)F)cc3)c(=O)n12 (stereo not drawn)	SK-MEL-28 melanoma	38.7 µM
C=CCn1c(=O)c(Br)nn(CCOCP(=O)(OCC)OCC)c1=O	SK-MEL-28 melanoma	> 100 µM
CCOC(=O)C(NC(=O)c1ccccc1)(c1ccc(S(=O)(=O)Nc2onc(C)c2C)cc1)C(F)(F)F (stereo not drawn)	SK-MEL-28 melanoma	> 100 µM

Q: Give the measured TGI for CCOC(=O)CNC(=O)OCc1ccccc1
A: > 100 µM

Q: Give the measured TGI for COC(=O)N/N=C(\C)CC(=O)Nc1cccc([N+](=O)[O-])c1
A: > 100 µM

Q: Give the measured TGI for Cc1ccc(N=C2OP(=O)(Nc3ccc(C)cc3)Oc3ccccc32)cc1 (stereo not drawn)
A: > 100 µM

Q: Give the measured TGI for COc1ccc(C(=O)c2nc3ccccc3nc2N2CCN(c3ccccc3)CC2)cc1OC
A: > 100 µM

Q: Give the measured TGI for O=C(O)/C=C/c1ccc(OS(=O)(=O)O)cc1
A: > 100 µM

Q: Give the measured TGI for CCOC(=O)/C(=C\c1cn(C(C)=O)c2ccccc12)P(C)(=O)OCC (stereo not drawn)
A: > 100 µM

Q: Give the measured TGI for CC[O-].CC[O-].O=C([CH-]C(=O)c1ccccc1)CCCCCCC(=O)[CH-]C(=O)c1ccccc1.[Ti+4]
A: > 100 µM

Q: Give the measured TGI for Cc1oc2nc(N(C)C)nc(NN)c2c1C
A: > 100 µM

----------
# System: KM12 colon
# assay-comment: NCI tumour cell line growth inhibition, 48 h
Below is a list of entries, each paired with its recorded TGI value.

Cc1c(C(=O)Nc2ccccc2)nnn1-c1ccnc2cc(C(F)(F)F)ccc12 > 100 µM
CC(=O)Nn1cnc(C(=N)C#N)c1N > 100 µM

Next compound, TGI to be filled in.
Q: Give the measured TGI for CO/C=C(\Br)c1ccc2c(c1)OCO2
A: > 100 µM

----------
Below is a list of entries, each paired with its recorded TGI value.
# System: HT29 colon
# assay-comment: NCI tumour cell line growth inhibition, 48 h

Reference set, count: 5
compound	target-desc	result
CN(/N=C/c1ccccc1O)c1ccc2ccccc2n1	HT29 colon	90.1 µM
O=C1c2cn[nH]c2N=C(Nc2ccccc2)C1N=Cc1ccc([N+](=O)[O-])cc1 (centres undefined)	HT29 colon	> 10 µM
COCN1C(=N)C(C(=O)OC(C)(C)C)=C2C=C(O)C=CC21C (centres undefined)	HT29 colon	19.9 µM
O=S1(=O)c2cc(S(=O)(=O)n3ccnc3)ccc2NC2=NCCCN21	HT29 colon	46.3 µM
O=C(CC1(O)C(=O)Nc2ccccc21)c1ccc(Cl)cc1Cl (centres undefined)	HT29 colon	> 100 µM

Next compound, TGI to be filled in.
Q: Give the measured TGI for CCO[C@H]1O[C@@H]2OC3(C)CCC4[C@H](C)CCC([C@H]1C)[C@]42OO3 (some centres undefined)
A: > 100 µM

----------
# Tested on: SF-539 CNS
# assay-comment: NCI tumour cell line growth inhibition, 48 h; in the data active = GI50 below about 0.43 µM; inactive = the rest
Allowed answers: 1.0 (active), 0.0 (inactive)

Q: Outcome logged for Fc1ccc(-c2ncn(CCCN3CCOCC3)c2-c2ccncc2)cc1 in this assay:
A: 0.0

Q: Outcome logged for Cc1nc2ccccc2c(/C=C/c2ccccc2)c1C(=O)/C=C/c1ccc(C(F)(F)F)cc1 in this assay:
A: 0.0

Q: Outcome logged for C#Cc1cccc(NC(=O)c2cccc(NC(=O)CCl)c2)c1 in this assay:
A: 0.0

Q: Outcome logged for CCCCC(OC(=O)c1ccc(N)cc1)C(=O)Nc1nc(CC(=O)OCC)cs1 (stereo unspecified) in this assay:
A: 0.0

Q: Outcome logged for O=C(Nc1cccc(C(F)(F)F)c1)c1ccc(NC2=C(Cl)C(=O)N(Cc3ccccc3)C2=O)cc1 in this assay:
A: 0.0

Q: Outcome logged for O=C1c2ccccc2C(=O)c2c1oc1c2c(=O)[nH]c2ccc(Cl)cc21 in this assay:
A: 1.0

Attribution: PubChem BioAssay (NCI)
